- Assay Method Text: NCI Yeast Anticancer Drug Screen. Data for the mlh1 rad18 strain (AID 175)
- Condition Notes: S. cerevisiae mlh1 rad18 strain growth inhibition; at 50.0 µM
This is part of a sample that, as a whole, favours compounds with a hit. Of some 79,000 tested, about 15% had one in any assay. Active and inactive are the calls of the source. Cut-off read from the data, not from the text of the source: active = growth inhibition above about 70%; inactive = the rest.
Outcome codes: Yes (active), No (inactive)

Compound | Class Label
Cc1ccc2nc(Nc3nc(C)cc(C)n3)[nH]c2c1 | No
Nc1nnc2cc(Br)ccc2n1 | No
CCOC(=O)C(=CNc1cc(C(F)(F)F)ccc1N1CCOCC1)C(=O)OCC | No
C/C=C1\CN2CCc3c([nH]c4ccccc34)C2CC1CC(=O)N(C)C (stereo not drawn) | No
CC1CC=CCC1C(=O)OC/C=C/COC(=O)C1CC=CCC1C (stereo not drawn) | No
COc1c2c(cc3c1C1(O)Cc4ccc5c(c4C[N+]1(C)CC3)OCO5)OCO2 (stereo not drawn) | No
COc1cccc(-n2cnc3c(SC)ncnc32)c1 | No
Cc1ccc(CCCCCOc2ccc(C3=NCCO3)cc2)s1 | No
Cc1cc(-n2cnc3c(N(CCO)CCO)ncnc32)ccc1[N+](=O)[O-] | No
CC(O)C([NH-])C(=O)O.CC([NH-])C(=O)O.[Cu+2] (stereo not drawn) | No
C=C(CC[C@@H](C)[C@H]1CC[C@@]2(C)C3=C(CC[C@]12C)[C@@]1(C)CC[C@H](O)[C@@H](C)C1CC3)C(C)C (stereo partly drawn) | Yes
C/C(=N/O)c1cccc([N+](=O)[O-])c1 | No
O=C(Nc1cccc(Cl)c1Cl)Oc1cccc2ccccc12 | No
CC(=O)On1c(-c2ccccc2-c2nc3ccccc3n2OC(C)=O)nc2ccccc21 | No
CCCCC(CC)CNCC(CC)CCCC (stereo not drawn) | No
O=P(CCC(CC(F)(F)C(F)(F)C(F)(F)C(F)(F)C(F)(F)C(F)(F)C(F)(F)F)P(=O)(N1CC1)N1CC1)(N1CC1)N1CC1 (stereo not drawn) | No
Cc1ccc(C)c2c(Cl)c3c(C)ccc(C)c3nc12 | No
COc1ccc(CCNC(=S)NC(=O)c2ccc(Cl)c(Cl)c2)cc1OC | No
CSc1ncnc2c1ccn2C1OC(COP(=O)(O)O)C(O)C1O (stereo not drawn) | No
CCS(=O)(=O)C(S(C)(=O)=O)S(=O)(=O)C(C)C (stereo not drawn) | No
Cc1ccc(NC(=S)N2CCCCC2)cc1C | No
CC1(C)CCC(=O)OC1C[N+](=O)[O-] (stereo not drawn) | No
NNc1ccc([N+](=O)[O-])c2[nH][nH]c(=O)c12 | No
